# test_details: Cytotoxicity against rat ASK cells after 72 hrs by sulforhodamine B assay
# Assay type: functional
# assay_setup: read-out: ED50 (the source's name)
attribute_measured: pEC50
By convention, pEC50 is the negative base-10 log of a molar concentration.

Query: # input compound: `Cc1c2ccncc2c(C)c2c1[nH]c1ccccc12` ; wanted: its pEC50
Result: 5.66

Query: Also C=C1C(=O)O[C@@H]2C[C@@H]3[C@]4(CC[C@]5(C)[C@@H]([C@H](C)CC(=O)C=C(C)C)CC[C@@]35C)C[C@]4(CCC(=O)OC)[C@H]12 [SECAUBRYOLIDE] , if possible.
Result: 5.34

----------
# experimental_target: Human immunodeficiency virus type 1 reverse transcriptase (Human immunodeficiency virus 1, UniProt Q72547)
attribute_measured: IC50 (µM)
// units = µM; emit number, no label

Query: # input molecule: C=C1C(=O)O[C@@H]2C[C@@H]3[C@]4(CC[C@]5(C)[C@@H]([C@H](C)CC(=O)C=C(C)C)CC[C@@]35C)C[C@]4(CCC(=O)O)[C@H]12 (relative stereo) ; wanted: its IC50
Result: 85.7

Query: Also `C=C(C(=O)O)[C@@H]1CC[C@@H]2[C@]3(CC[C@]4(C)[C@@H]([C@H](C)CC(=O)C=C(C)C)CC[C@@]24C)C[C@]13CCC(=O)O` , if possible.
Result: 68.7

Query: Also `COc1cc2c(ccc3c4cc(OC)c(OC)cc4c[n+](C)c23)cc1O` , if possible.
Result: 26.5

----------
# System: KB
# test_details: Cytotoxicity against human KB cells after 72 hrs by sulforhodamine B assay
# Type: functional
# assay_setup: read-out: ED50 (the source's name)
attribute_measured: pEC50
By convention, pEC50 is the negative base-10 log of a molar concentration.

Query: # input molecule: `Cc1c2ccncc2c(C)c2c1[nH]c1ccccc12` ; wanted: its pEC50
Result: 5.66

Query: Also C=C1C(=O)O[C@@H]2C[C@@H]3[C@]4(CC[C@]5(C)[C@@H]([C@H](C)CC(=O)CC(C)(C)O)CC[C@@]35C)C[C@]4(CCC(=O)OC)[C@H]12 (relative stereo) , if possible.
Result: 5.17

Query: Also C=C1C(=O)O[C@@H]2C[C@@H]3[C@]4(CC[C@]5(C)[C@@H]([C@H](C)CC(=O)C=C(C)C)CC[C@@]35C)C[C@]4(CCC(=O)O)[C@H]12 (relative stereo) , if possible.
Result: 5.14

----------
# System: HEK293
# test_details: Cytotoxicity against human HEK293 cells after 72 hrs by sulforhodamine B assay
# Assay type: functional
# assay_setup: HEK293, 72 h, read-out: ED50 (the source's name)
attribute_measured: EC50

Query: # input compound: `CC(C)CC(=O)C[C@@H](C)[C@H]1CC[C@@]2(C)[C@@H]3CC[C@H]4[C@](C)(C(=O)O)[C@@H](O)C[C@H](O)[C@@]45C[C@@]35CC[C@]12C` ; wanted: its EC50
Result: > 10 µM

Query: Also CC(C)CC(=O)C[C@@H](C)[C@H]1CC[C@@]2(C)[C@@H]3CC[C@H]4[C@](C)(C(=O)O)[C@@H](O)CC[C@@]45C[C@@]35CC[C@]12C (relative stereo) , if possible.
Result: > 10 µM

Query: Also C=C1C(=O)O[C@@H]2C[C@@H]3[C@]4(CC[C@]5(C)[C@@H]([C@H](C)CC(=O)C=C(C)C)CC[C@@]35C)C[C@]4(CCC(=O)OC)[C@H]12 [SECAUBRYOLIDE] , if possible.
Result: 3.2 µM

Query: Also C=C1COC(=O)CC[C@]23C[C@]24CC[C@]2(C)[C@@H]([C@H](C)CC(=O)C=C(C)C)CC[C@@]2(C)[C@@H]4CC[C@@H]13 (relative stereo) , if possible.
Result: > 10 µM
